inhibition reference
- TESTED ON: CDK2 (UniProt P24941)
- EXPERIMENT: Enzyme Assay
- TEST CONDITIONS: concentration not given here
Answer with a number only, understood to be in %.

Here are 5 compounds together with their reported answers.
CS(=O)(=O)c1ccccc1S(=O)(=O)Nc1ccc2[nH]nc(-c3ccc4[nH]ccc4c3)c2c1 : 73
CC(C)c1cccc(-c2n[nH]c3ccc(NS(=O)(=O)c4ccccc4S(C)(=O)=O)cc23)c1 : 59
CS(=O)(=O)c1ccccc1S(=O)(=O)Nc1ccc2[nH]nc(-c3cc(C(F)(F)F)cc(C(F)(F)F)c3)c2c1 : 28
CS(=O)(=O)c1ccccc1S(=O)(=O)Nc1ccc2[nH]nc(-c3ccncc3)c2c1 : 87
CS(=O)(=O)c1ccccc1S(=O)(=O)Nc1ccc2[nH]nc(-c3ccco3)c2c1 : 76

Query: inhibition; subject: `COc1ccccc1-c1n[nH]c2ccc(NS(=O)(=O)c3ccccc3S(C)(=O)=O)cc12`
50

Query: inhibition; subject: `N#Cc1cccc(S(=O)(=O)Nc2ccc3[nH]nc(-c4ccccc4)c3c2)c1`
75
